test: Permeability coefficient across basolateral to apical side in human Caco-2 cells by HPLC-UV analysis
measuredAttribute: Papp B→A (×10⁻⁶ cm/s)

Guide cases for Papp B→A, answers given:
# molecule, Papp B→A (×10⁻⁶ cm/s)
rows = [
    ("COc1ccc(Cc2ccccc2O[C@@H]2O[C@H](CO)[C@@H](O)[C@H](O)[C@H]2O)cc1", 1.82),
    ("OC[C@H]1O[C@@H](Oc2ccc(Cc3ccc(O)cc3)cc2)[C@H](O)[C@@H](O)[C@@H]1O", 1.42),
]

A = C[C@H]1O[C@@H](O[C@H]2[C@@H](O)C[C@H](O[C@H]3[C@@H](O)C[C@H](O[C@H]4CC[C@@]5(C)[C@H](CC[C@@H]6[C@@H]5C[C@@H](O)[C@]5(C)[C@@H](C7=CC(=O)OC7)CC[C@]65O)C4)O[C@@H]3C)O[C@@H]2C)C[C@H](O)[C@@H]1O
B = COc1ccc(Cc2ccc(O[C@@H]3O[C@H](CO)[C@@H](O)[C@H](O)[C@H]3O)cc2)cc1
C = COc1ccc(Cc2cccc(O[C@@H]3O[C@H](CO)[C@@H](O)[C@H](O)[C@H]3O)c2)cc1
D = OC[C@H]1O[C@@H](OCCc2ccc(O)cc2)[C@H](O)[C@@H](O)[C@@H]1O [SALIDROSIDE]
Inquiry: Could you please sort these 4 entries by Papp B→A from high to low? Answer with the labels in sequence, matching the requested order.
Reply text: A, D, B, C

* * *

test: Permeability coefficient across apical to basolateral side in human Caco-2 cells by HPLC-UV analysis
measuredAttribute: Papp A→B (×10⁻⁶ cm/s)

# molecule, measuredAttribute, dataValue
measured = [
    ("OC[C@H]1O[C@@H](Oc2ccc(Cc3ccc(O)cc3)cc2)[C@H](O)[C@@H](O)[C@@H]1O", "Papp A→B", 1.3),
]

A = C[C@H]1O[C@@H](O[C@H]2[C@@H](O)C[C@H](O[C@H]3[C@@H](O)C[C@H](O[C@H]4CC[C@@]5(C)[C@H](CC[C@@H]6[C@@H]5C[C@@H](O)[C@]5(C)[C@@H](C7=CC(=O)OC7)CC[C@]65O)C4)O[C@@H]3C)O[C@@H]2C)C[C@H](O)[C@@H]1O
B = OC[C@H]1O[C@@H](OCCc2ccc(O)cc2)[C@H](O)[C@@H](O)[C@@H]1O [SALIDROSIDE]
Inquiry: Input pair: A , B . Output: entry with lower Papp A→B. Answer = label.
Reply text: A

* * *

target: Hypoxia-inducible factor 1-alpha (Mus musculus) (UniProt Q61221); test: Inhibition of HIF-1alpha in mouse C2C12 cells transfected with PDGF-B driven firefly luciferase gene assessed as transcriptional activity pretreated with compound for 12 hr followed by hypoxic condition for 24 hrs by dual luciferase reporter gene assay; type: cell-based; conditions: time 36.0 hrs
Sequence (Q61221 whole entry): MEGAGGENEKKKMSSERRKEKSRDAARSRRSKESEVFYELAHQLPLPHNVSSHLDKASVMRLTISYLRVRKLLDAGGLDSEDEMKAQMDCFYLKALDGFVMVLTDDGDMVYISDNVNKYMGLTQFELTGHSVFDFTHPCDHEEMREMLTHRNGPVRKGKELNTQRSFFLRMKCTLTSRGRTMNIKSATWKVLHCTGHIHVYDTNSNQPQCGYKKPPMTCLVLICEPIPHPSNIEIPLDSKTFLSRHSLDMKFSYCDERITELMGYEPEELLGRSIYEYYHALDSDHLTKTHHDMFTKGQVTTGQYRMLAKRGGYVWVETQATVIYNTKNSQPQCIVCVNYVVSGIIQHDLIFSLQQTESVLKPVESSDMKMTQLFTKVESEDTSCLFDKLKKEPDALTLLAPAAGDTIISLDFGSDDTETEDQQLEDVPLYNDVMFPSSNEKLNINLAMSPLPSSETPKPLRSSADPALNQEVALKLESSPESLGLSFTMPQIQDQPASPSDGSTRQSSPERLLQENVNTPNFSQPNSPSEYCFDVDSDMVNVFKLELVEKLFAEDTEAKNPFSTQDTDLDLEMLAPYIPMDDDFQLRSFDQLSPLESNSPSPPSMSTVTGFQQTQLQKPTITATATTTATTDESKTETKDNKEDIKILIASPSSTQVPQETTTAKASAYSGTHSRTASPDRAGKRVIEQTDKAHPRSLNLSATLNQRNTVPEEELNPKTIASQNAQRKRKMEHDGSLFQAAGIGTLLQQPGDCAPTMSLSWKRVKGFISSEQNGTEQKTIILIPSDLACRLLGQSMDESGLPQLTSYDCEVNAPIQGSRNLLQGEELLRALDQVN
Activity calls are given as the source filed them. The rule behind the calls is not given here.
Write down the outcome that applies. Available outcomes: active, inactive

Illustrative cases are given below, each with its answer.
# lineNotation, classAssignment
rows = [
    ("COc1ccc(-c2cccc(O[C@@H]3O[C@H](CO)[C@@H](O)[C@H](O)[C@H]3O)c2)cc1", "active"),
    ("OC[C@H]1O[C@@H](OCCc2ccc(F)cc2)[C@H](O)[C@@H](O)[C@@H]1O", "active"),
    ("OC[C@H]1O[C@@H](CCCc2ccc(O)cc2)[C@H](O)[C@@H](O)[C@@H]1O", "inactive"),
    ("COc1ccc(-c2ccc(O[C@@H]3O[C@H](CO)[C@@H](O)[C@H](O)[C@H]3O)cc2)cc1", "active"),
    ("COc1ccc(CCO[C@@H]2O[C@H](CO)[C@@H](O)[C@H](O)[C@H]2O)cc1", "active"),
]

Inquiry: // param item: OC[C@H]1O[C@@H](OCC2(c3ccc(O)cc3)CCC2)[C@H](O)[C@@H](O)[C@@H]1O ; yields the recorded call
Reply text: active

Inquiry: // param item: COc1ccc(Cc2ccc(O[C@@H]3O[C@H](CO)[C@@H](O)[C@H](O)[C@H]3O)cc2)cc1 ; yields the recorded call
Reply text: active

Inquiry: // param item: COc1ccc(C(C)(C)CO[C@@H]2O[C@H](CO)[C@@H](O)[C@H](O)[C@H]2O)cc1 ; yields the recorded call
Reply text: active

Inquiry: // param item: COc1ccc(Cc2cccc(O[C@@H]3O[C@H](CO)[C@@H](O)[C@H](O)[C@H]3O)c2)cc1 ; yields the recorded call
Reply text: active

Inquiry: // param item: OC[C@H]1O[C@@H](OCCc2ccccc2)[C@H](O)[C@@H](O)[C@@H]1O ; yields the recorded call
Reply text: active
